# Test system: kochia
# test-protocol: Test C pre-/postemergence test
# Assay type: in vivo, Kochia scoparia
# condition-description: 62 g ai/ha, preemergence; scale 0 (no effect) to 100 (complete control)
# From the text: Seeds of plant species selected from blackgrass (Alopecurus myosuroides), downy brome (Bromus tectorum), green foxtail (Setaria viridis), Italian ryegrass (Lolium multiflorum), wheat (Triticum aestivum), wild oat (Avena fatua), catchweed bedstraw (Galium aparine), Russian thistle (Salsola kali), […] […]
# key: entry, value: Kochia plant response rating

Below, 3 compounds whose answers are already recorded.
{"columns": ["compound", "Kochia plant response rating"],
 "data": [
  ["Cc1cc[n+]([O-])c(S(=O)(=O)Cc2c(C(F)(F)F)nn(C)c2OC(F)F)c1 [Compound 2]", 100],
  ["Cn1nc(C(F)(F)F)c(C(Cl)S(=O)(=O)c2cccc[n+]2[O-])c1Cl (stereo not drawn) [Compound 12]", 0],
  ["CC(c1c(C(F)(F)F)nn(C)c1OC(F)F)S(=O)(=O)c1cccc[n+]1[O-] (stereo not drawn) [Compound 5]", 100]
]}

Kochia plant response rating in this record for Cn1nc(C(F)(F)F)c(C[S+]([O-])c2ccc(Cl)c[n+]2[O-])c1OC(F)F (stereo not drawn) [Compound 6] : 0

Kochia plant response rating in this record for Cn1nc(C(F)(F)F)c(C[S+]([O-])c2ccc(Br)c[n+]2[O-])c1OC(F)F (racemic) [Compound 16] : 100

Kochia plant response rating in this record for Cn1nc(C(F)(F)F)c(C[S+]([O-])c2cccc[n+]2[O-])c1OC(F)F (stereo not drawn) [Compound 3] : 100
